Experiment: Approximate pKa value of compound was determined
Format: physicochemical
Conditions: read-out: Approx. pKa
Attribute measured: pKa

CC/C(=C(\c1ccccc1)c1ccc(OCCN2CCN(C)CC2)cc1)c1ccccc1 ... 9.8
CC/C(=C(\c1ccccc1)c1ccc(OCCCN2CCCC2)cc1)c1ccccc1 ... 11.3
CC/C(=C(\c1ccccc1)c1ccc(OCCN2CCCCC2)cc1)c1ccccc1 ... 11.2
CC/C(=C(\c1ccccc1)c1ccc(OCCN=C(N)N)cc1)c1ccccc1 ... 13.7
CC/C(=C(\c1ccccc1)c1ccc(OCCN(CC)CC)cc1)c1ccccc1 ... 10.9
CC/C(=C(\c1ccccc1)c1ccc(OCCN2CCCC2)cc1)c1ccccc1 ... 11.3
CC/C(=C(\c1ccccc1)c1ccc(OCCN2CCOCC2)cc1)c1ccccc1 ... 8.7
CC/C(=C(\c1ccccc1)c1ccc(OCCN(C)C)cc1)c1ccccc1 [TAMOXIFEN] ... 10.8
